# procedure-summary: Permeability in human Caco2 cells
# Type: ADME, cell-based
# run-parameters: Caco-2, read-out: permeability
measured-parameter: Papp

chemical-smiles: COc1cnc(-c2cncc(N)n2)c2[nH]cc(C(=O)C(=O)N3CCN(C(=O)c4ccccc4)CC3)c12
measured-parameter: Papp
reported: 1.5 to 2.2 ×10⁻⁶ cm/s

Please indicate Papp recorded for `COc1cnc(-c2cc[nH]n2)c2[nH]cc(C(=O)C(=O)N3CCN(C(=O)c4ccccc4)CC3)c12`
< 1 ×10⁻⁶ cm/s

Please indicate Papp recorded for `COc1cnc(-c2cncnc2)c2[nH]cc(C(=O)C(=O)N3CCN(C(=O)c4ccccc4)CC3)c12`
1.5 to 4.9 ×10⁻⁶ cm/s

Please indicate Papp recorded for `COc1cnc(-n2cnc(N)n2)c2[nH]cc(C(=O)C(=O)N3CCN(C(=O)c4ccccc4)[C@H](C)C3)c12`
< 1.5 ×10⁻⁶ cm/s

Please indicate Papp recorded for `COc1cnc(-n2ccc(N)n2)c2[nH]cc(C(=O)C(=O)N3CCN(C(=O)c4ccccc4)CC3)c12`
< 1.5 ×10⁻⁶ cm/s

Please indicate Papp recorded for `CCNC(=O)c1ncn(-c2ncc(OC)c3c(C(=O)C(=O)N4CCN(C(=O)c5ccccc5)CC4)c[nH]c23)n1`
< 1.5 ×10⁻⁶ cm/s

Please indicate Papp recorded for `COc1cnc(-n2ccc(CN(C)C)n2)c2[nH]cc(C(=O)C(=O)N3CCN(C(=O)c4ccccc4)CC3)c12`
1.5 to 4.1 ×10⁻⁶ cm/s
